System: 953936-095-R-J2-PDC spheroids with HUVEC/MSC, viability
protocol.summary: Anticancer human tumor 953936-095-R-J2-PDC patient-derived cervical squamous cell carcinoma cell line growth inhibition [PI3K]
details: second compound 0.1 µM; first compound 3.16 µM; stronger effect = lower value
Threshold 50%. viability, T/C below it: 1.0. viability, T/C at it or above: 0.0.

Below are worked cases with known answers.
{"columns": ["molecule", "class"],
 "data": [
  ["CC1(C)CCC(CN2CCN(c3ccc(C(=O)NS(=O)(=O)c4ccc(NCC5CCOCC5)c([N+](=O)[O-])c4)c(Oc4cnc5[nH]ccc5c4)c3)CC2)=C(c2ccc(Cl)cc2)C1 + COc1c(OCCCN2CCOCC2)ccc2c3n(c(=NC(=O)c4cnc(N)nc4)nc12)CCN3", 1.0],
  ["Cn1nccc1Nc1nccc(-c2ccn(C(CO)c3ccc(Cl)c(F)c3)c(=O)c2)n1 (stereo unspecified) + Cc1nc(NC(=O)N2CCCC2C(N)=O)sc1-c1ccnc(C(C)(C)C(F)(F)F)c1", 0.0]
]}

Input Cn1nccc1Nc1nccc(-c2ccn(C(CO)c3ccc(Cl)c(F)c3)c(=O)c2)n1 (stereo unspecified) + CC(Nc1ccc2c(c1)OCCn1cc(N3C(=O)OCC3C(F)F)nc1-2)C(N)=O ; condition: viability, T/C strictly below 50%. Does it hold? 1.0

Input C#Cc1c(F)ccc2cc(O)cc(-c3ncc4c(N5CC6CCC(C5)N6)nc(OCC56CCCN5CC(F)C6)nc4c3F)c12 (stereo unspecified) + CC(Nc1ccc2c(c1)OCCn1cc(N3C(=O)OCC3C(F)F)nc1-2)C(N)=O ; condition: viability, T/C strictly below 50%. Does it hold? 1.0

Input C=CC(=O)N1CCN(c2nc(=O)n(-c3c(C)ccnc3C(C)C)c3nc(-c4c(O)cccc4F)c(F)cc23)C(C)C1 (stereo unspecified) + Cc1nc(NC(=O)N2CCCC2C(N)=O)sc1-c1ccnc(C(C)(C)C(F)(F)F)c1 ; condition: viability, T/C strictly below 50%. Does it hold? 0.0

Input C=CC(=O)N1CCN(c2nc(=O)n(-c3c(C)ccnc3C(C)C)c3nc(-c4c(O)cccc4F)c(F)cc23)C(C)C1 (stereo unspecified) + CC(Nc1ccc2c(c1)OCCn1cc(N3C(=O)OCC3C(F)F)nc1-2)C(N)=O ; condition: viability, T/C strictly below 50%. Does it hold? 0.0

Input Cn1ncc(Cl)c1-c1cc(C(=O)NC(CN)Cc2cccc(F)c2)sc1Cl (stereo unspecified) + COc1c(OCCCN2CCOCC2)ccc2c3n(c(=NC(=O)c4cnc(N)nc4)nc12)CCN3 ; condition: viability, T/C strictly below 50%. Does it hold? 1.0

Input CC1(C)CCC(CN2CCN(c3ccc(C(=O)NS(=O)(=O)c4ccc(NCC5CCOCC5)c([N+](=O)[O-])c4)c(Oc4cnc5[nH]ccc5c4)c3)CC2)=C(c2ccc(Cl)cc2)C1 + Cc1nc(NC(=O)N2CCCC2C(N)=O)sc1-c1ccnc(C(C)(C)C(F)(F)F)c1 ; condition: viability, T/C strictly below 50%. Does it hold? 0.0

Input CC1(C)CCC(CN2CCN(c3ccc(C(=O)NS(=O)(=O)c4ccc(NCC5CCOCC5)c([N+](=O)[O-])c4)c(Oc4cnc5[nH]ccc5c4)c3)CC2)=C(c2ccc(Cl)cc2)C1 + CC(Nc1ncnc2nc[nH]c12)c1cc2cccc(Cl)c2c(=O)n1-c1ccccc1 ; condition: viability, T/C strictly below 50%. Does it hold? 0.0

Input Cn1ncc(Cl)c1-c1cc(C(=O)NC(CN)Cc2cccc(F)c2)sc1Cl (stereo unspecified) + Cc1nc(NC(=O)N2CCCC2C(N)=O)sc1-c1ccnc(C(C)(C)C(F)(F)F)c1 ; condition: viability, T/C strictly below 50%. Does it hold? 1.0

###

Test system: 953936-095-R-J2-PDC spheroids with HUVEC/MSC, viability
protocol.summary: Anticancer human tumor 953936-095-R-J2-PDC cell line growth inhibition [PI3K];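 further: spheroids exposed to compounds for seven days before read-out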
details: second compound 0.1 µM; first compound 0.00316 µM; stronger effect = lower value
measure: viability, T/C (%)
Form entry: value (%) — number only.

{"columns": ["molecule", "target.desc", "viability, T/C / %"],
 "data": [
  ["CC(=O)c1c(C)c2cnc(Nc3ccc(N4CCNCC4)cn3)nc2n(C2CCCC2)c1=O + CC(Nc1ccc2c(c1)OCCn1cc(N3C(=O)OCC3C(F)F)nc1-2)C(N)=O", "953936-095-R-J2-PDC spheroids with HUVEC/MSC, viability", 58.6],
  ["CCN1CCN(Cc2ccc(Nc3ncc(F)c(-c4cc(F)c5nc(C)n(C(C)C)c5c4)n3)nc2)CC1 + CC(Nc1ccc2c(c1)OCCn1cc(N3C(=O)OCC3C(F)F)nc1-2)C(N)=O", "953936-095-R-J2-PDC spheroids with HUVEC/MSC, viability", 58.4],
  ["Cn1ncnc1[C@H]1c2n[nH]c(=O)c3cc(F)cc(c23)N[C@@H]1c1ccc(F)cc1 + CC(Nc1ccc2c(c1)OCCn1cc(N3C(=O)OCC3C(F)F)nc1-2)C(N)=O", "953936-095-R-J2-PDC spheroids with HUVEC/MSC, viability", 60.4],
  ["CCN1CCN(Cc2ccc(Nc3ncc(F)c(-c4cc(F)c5nc(C)n(C(C)C)c5c4)n3)nc2)CC1 + COc1c(OCCCN2CCOCC2)ccc2c3n(c(=NC(=O)c4cnc(N)nc4)nc12)CCN3", "953936-095-R-J2-PDC spheroids with HUVEC/MSC, viability", 20],
  ["CCN1CCN(Cc2ccc(Nc3ncc(F)c(-c4cc(F)c5nc(C)n(C(C)C)c5c4)n3)nc2)CC1 + Cc1nc(NC(=O)N2CCCC2C(N)=O)sc1-c1ccnc(C(C)(C)C(F)(F)F)c1", "953936-095-R-J2-PDC spheroids with HUVEC/MSC, viability", 84.8],
  ["Cn1ncnc1[C@H]1c2n[nH]c(=O)c3cc(F)cc(c23)N[C@@H]1c1ccc(F)cc1 + Cc1nc(NC(=O)N2CCCC2C(N)=O)sc1-c1ccnc(C(C)(C)C(F)(F)F)c1", "953936-095-R-J2-PDC spheroids with HUVEC/MSC, viability", 83.7]
]}

Note: attention shifts to another entry.
Sample CC(=O)c1c(C)c2cnc(Nc3ccc(N4CCNCC4)cn3)nc2n(C2CCCC2)c1=O + Cc1nc(NC(=O)N2CCCC2C(N)=O)sc1-c1ccnc(C(C)(C)C(F)(F)F)c1 — what was its viability, T/C? 85.6

###

Tested on: 953936-095-R-J2-PDC spheroids with HUVEC/MSC, viability
protocol.summary: Anticancer human tumor 953936-095-R-J2-PDC cell line growth inhibition [PI3K];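 further: spheroids exposed to compounds for seven days before read-out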
details: second compound 0.1 µM; first compound 0.0316 µM; stronger effect = lower value
# viability, T/C values compiled below
Form entry: value (%) — number only.

{"columns": ["compound", "reported.value"],
 "data": [
  ["Cn1ncnc1[C@H]1c2n[nH]c(=O)c3cc(F)cc(c23)N[C@@H]1c1ccc(F)cc1 + Cc1nc(NC(=O)N2CCCC2C(N)=O)sc1-c1ccnc(C(C)(C)C(F)(F)F)c1", 83.3],
  ["C=CC(=O)N1CCN(c2nc(=O)n(-c3c(C)ccnc3C(C)C)c3nc(-c4c(O)cccc4F)c(F)cc23)C(C)C1 (centres undefined) + Cc1nc(NC(=O)N2CCCC2C(N)=O)sc1-c1ccnc(C(C)(C)C(F)(F)F)c1", 81.9],
  ["CNC(=O)c1ccc(N2C(=S)N(c3ccc(C#N)c(C(F)(F)F)c3)C(=O)C2(C)C)cc1F + Cc1nc(NC(=O)N2CCCC2C(N)=O)sc1-c1ccnc(C(C)(C)C(F)(F)F)c1", 81.2]
]}

Sample C#Cc1c(F)ccc2cc(O)cc(-c3ncc4c(N5CC6CCC(C5)N6)nc(OCC56CCCN5CC(F)C6)nc4c3F)c12 (centres undefined) + CC(Nc1ncnc2nc[nH]c12)c1cc2cccc(Cl)c2c(=O)n1-c1ccccc1 — what was its viability, T/C? 95.2

Sample Cn1nccc1Nc1nccc(-c2ccn(C(CO)c3ccc(Cl)c(F)c3)c(=O)c2)n1 (centres undefined) + CC(Nc1ncnc2nc[nH]c12)c1cc2cccc(Cl)c2c(=O)n1-c1ccccc1 — what was its viability, T/C? 94.3

Sample CC1(C)CCC(CN2CCN(c3ccc(C(=O)NS(=O)(=O)c4ccc(NCC5CCOCC5)c([N+](=O)[O-])c4)c(Oc4cnc5[nH]ccc5c4)c3)CC2)=C(c2ccc(Cl)cc2)C1 + CC(Nc1ccc2c(c1)OCCn1cc(N3C(=O)OCC3C(F)F)nc1-2)C(N)=O — what was its viability, T/C? 57.7

###

Tested on: 953936-095-R-J2-PDC spheroids with HUVEC/MSC, viability
protocol.summary: Anticancer human tumor 953936-095-R-J2-PDC cell line growth inhibition [PI3K];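 further: spheroids exposed to compounds for seven days before read-out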
details: second compound 0.0316 µM; first compound 0.1 µM; stronger effect = lower value
# viability, T/C values compiled below
Form entry: value (%) — number only.

{"columns": ["molecule", "viability, T/C [%]"],
 "data": [
  ["Cn1nccc1Nc1nccc(-c2ccn(C(CO)c3ccc(Cl)c(F)c3)c(=O)c2)n1 (stereo not drawn) + Cc1nc(NC(=O)N2CCCC2C(N)=O)sc1-c1ccnc(C(C)(C)C(F)(F)F)c1", 89.9],
  ["C=CC(=O)N1CCN(c2nc(=O)n(-c3c(C)ccnc3C(C)C)c3nc(-c4c(O)cccc4F)c(F)cc23)C(C)C1 (stereo not drawn) + Cc1nc(NC(=O)N2CCCC2C(N)=O)sc1-c1ccnc(C(C)(C)C(F)(F)F)c1", 89.2]
]}

Note: attention shifts to another entry.
Sample CC(=O)c1c(C)c2cnc(Nc3ccc(N4CCNCC4)cn3)nc2n(C2CCCC2)c1=O + Cc1nc(NC(=O)N2CCCC2C(N)=O)sc1-c1ccnc(C(C)(C)C(F)(F)F)c1 — what was its viability, T/C? 89.5

Values from PubChem BioAssay AID1963971
